# testDescription: Transport across the BBB, in vitro co-culture cell assay (transwell)
# experimentalContext: pH 7.4
Where a SMILES comes first, the peptide text is derived from it.
Hi there, I'd appreciate the recorded Papp for every entry that follows.
Please give a number only; it is taken to be in ×10⁻⁶ cm/s.

Task: What value of Papp has been recorded for this entry: CSCC[C@@H](NC(=O)[C@@H](Cc1c[nH]c2ccccc12)NC(=O)[C@@H](CO)NC(=O)[C@H]1CCCN1C(=O)[C@H](NC(=O)[C@@H](Cc1c[nH]c2ccccc12)NC(=O)[C@H]1CCCN1)C(C)C)C(=O)N1CCC[C@@H]1C(=O)N1CCC[C@@H]1C(=O)N[C@H](CCCNC(=N)N)C(=O)N[C@H](Cc1c[nH]cn1)C(=O)N[C@@H](C(N)=O)[C@H](C)O [Example 1] (HELM PEPTIDE1{[dP].[dW].[dV].[dP].[dS].[dW].[dM].[dP].[dP].[dR].[dH].[dT].[am]}$$$$V2.0)
Output: 21.4

Task: Same question, CSCC[C@@H](NC(=O)[C@H]1CCCN1C(=O)[C@H]1CCCN1C(=O)[C@@H](CCCNC(=N)N)NC(=O)[C@@H](Cc1c[nH]cn1)NC(=O)[C@H](N)[C@H](C)O)C(=O)N[C@H](Cc1c[nH]c2ccccc12)C(=O)N[C@H](CO)C(=O)N1CCC[C@@H]1C(=O)N[C@@H](C(=O)N[C@H](Cc1c[nH]c2ccccc12)C(=O)N1CCC[C@@H]1C(N)=O)C(C)C [compound 2, reference compound] (HELM PEPTIDE1{[dT].[dH].[dR].[dP].[dP].[dM].[dW].[dS].[dP].[dV].[dW].[dP].[am]}$$$$V2.0) this time
Output: 9.9

----------
Hi there, I'd appreciate the recorded half-life for every entry that follows.
# testDescription: Stability of the shuttle in human serum
# experimentalContext: human, serum
Where a SMILES comes first, the peptide text is derived from it.

Task: What value of half-life has been recorded for this entry: CSCC[C@@H](NC(=O)[C@@H](Cc1c[nH]c2ccccc12)NC(=O)[C@@H](CO)NC(=O)[C@H]1CCCN1C(=O)[C@H](NC(=O)[C@@H](Cc1c[nH]c2ccccc12)NC(=O)[C@H]1CCCN1)C(C)C)C(=O)N1CCC[C@@H]1C(=O)N1CCC[C@@H]1C(=O)N[C@H](CCCNC(=N)N)C(=O)N[C@H](Cc1c[nH]cn1)C(=O)N[C@@H](C(N)=O)[C@H](C)O [Example 1] (HELM PEPTIDE1{[dP].[dW].[dV].[dP].[dS].[dW].[dM].[dP].[dP].[dR].[dH].[dT].[am]}$$$$V2.0)
Output: > 24 h

Task: Same question, CSCC[C@@H](NC(=O)[C@H]1CCCN1C(=O)[C@H]1CCCN1C(=O)[C@@H](CCCNC(=N)N)NC(=O)[C@@H](Cc1c[nH]cn1)NC(=O)[C@H](N)[C@H](C)O)C(=O)N[C@H](Cc1c[nH]c2ccccc12)C(=O)N[C@H](CO)C(=O)N1CCC[C@@H]1C(=O)N[C@@H](C(=O)N[C@H](Cc1c[nH]c2ccccc12)C(=O)N1CCC[C@@H]1C(N)=O)C(C)C [compound 2, reference compound] (HELM PEPTIDE1{[dT].[dH].[dR].[dP].[dP].[dM].[dW].[dS].[dP].[dV].[dW].[dP].[am]}$$$$V2.0) this time
Output: > 24 h

----------
# testDescription: Stability of the shuttle in human serum
# experimentalContext: human, serum
measuredProperty: half-life

Task: What value of half-life has been recorded for this entry: H-THRPPMWSPVWP-NH2 [compound 1, reference compound]
Output: < 1 h

Each recorded value in this set is attributed to patent US9475840B2.
